# System: P. falciparum, Dd2 strain (MRA-150)
# Test: P. falciparum growth inhibition
# Condition context: Plasmodium falciparum, DD2, 72 h, read-out: IC50 value at 72 h
Reported endpoint: IC50 (nM)

{"Compound": "O=C(O)[C@@H]1Cc2c([nH]c3ccccc23)[C@@H](c2ccc(Cl)cc2Cl)N1 [1a, (1R,3S)-MMV008138]", "Reported endpoint": "IC50", "Measured": 350}

---

# Tested target: Recombinant P. falciparum IspD (Plasmodium falciparum, UniProt Q8I273)
# Test: Pf IspD enzymatic assay
# Condition context: read-out: PfIspD IC50; measured at 60 nM Pf IspD
Listing: IC50 of selected compounds

{"Compound": "CNC(=O)C1Cc2c([nH]c3ccccc23)C(c2ccc(Cl)cc2Br)N1 (stereo not drawn) [7k]", "Tested target": "Recombinant P. falciparum IspD (Plasmodium falciparum, UniProt Q8I273)", "IC50 / µM": 0.031}
{"Compound": "CNC(=O)C1Cc2c([nH]c3ccccc23)C(c2ccc(Br)cc2Cl)N1 (stereo not drawn) [7j]", "Tested target": "Recombinant P. falciparum IspD (Plasmodium falciparum, UniProt Q8I273)", "IC50 / µM": 0.021}
